The reported measurements were obtained from ChEMBL document CHEMBL4184321.

protocol: Half life in human liver microsomes
Assay type: ADME, microsome
parameter: half-life

> print(dat)
                                   molecule  parameter  result
1  COc1cc2c(cc1-n1cnc3ccc(-c4ccnc5[nH]ccc45)cc31)CNC2  half-life  1.12 h

====

protocol: Solubility of the compound at pH 4
Type: physicochemical
conditionContext: buffer
parameter: solubility (µg/mL)

> print(dat)
                                   molecule  quantitativereadout
1  COc1cc2c(cc1-n1cnc3ccc(-c4ccnc5[nH]ccc45)cc31)CNC2                  790

====

protocol: Solubility of the compound at pH 7.4
Type: physicochemical
conditionContext: buffer
parameter: solubility (µg/mL)

> print(dat)
                                   molecule  quantitativereadout
1  COc1cc2c(cc1-n1cnc3ccc(-c4ccnc5[nH]ccc45)cc31)CNC2                  1.3

====

protocol: Clearance in human liver microsomes
Type: ADME, microsome
conditionContext: read-out: CLH
parameter: microsomal CLint (µL/min/mg)

> print(dat)
                                   molecule         parameter  quantitativereadout
1  COc1cc2c(cc1-n1cnc3ccc(-c4ccnc5[nH]ccc45)cc31)CNC2  microsomal CLint                   10

====

Endpoint: log10 IC50. System: Protein kinase C alpha type (Homo sapiens, UniProt P17252). Items follow.
parameter: log10 IC50 (log10 of the value in nM)

> print(dat)
                                   compound  quantitativereadout
1  COc1cc2c(cc1-n1cnc3ccc(-c4ccnc5[nH]ccc45)nc31)CNC2                 2.63
2  COc1cc2c(cc1-c1cnc3ccc(-c4ccnc5[nH]ccc45)nn13)CNC2                 3.15
3  COc1cc2c(cc1-n1cnc3ccc(-c4ccnc5[nH]ccc45)cc31)CNC2                 2.45
4  COc1cc2c(cc1-c1cnn3ccc(-c4ccnc5[nH]ccc45)cc13)CNC(C)C2 (stereo not given)                 1.81
5  COc1cc2c(cc1-c1cnn3ccc(-c4ccnc5[nH]ccc45)cc13)CN(C)C2                 2.15

====

studySystem: UniProtKB P10635
Sequence (P10635 whole entry): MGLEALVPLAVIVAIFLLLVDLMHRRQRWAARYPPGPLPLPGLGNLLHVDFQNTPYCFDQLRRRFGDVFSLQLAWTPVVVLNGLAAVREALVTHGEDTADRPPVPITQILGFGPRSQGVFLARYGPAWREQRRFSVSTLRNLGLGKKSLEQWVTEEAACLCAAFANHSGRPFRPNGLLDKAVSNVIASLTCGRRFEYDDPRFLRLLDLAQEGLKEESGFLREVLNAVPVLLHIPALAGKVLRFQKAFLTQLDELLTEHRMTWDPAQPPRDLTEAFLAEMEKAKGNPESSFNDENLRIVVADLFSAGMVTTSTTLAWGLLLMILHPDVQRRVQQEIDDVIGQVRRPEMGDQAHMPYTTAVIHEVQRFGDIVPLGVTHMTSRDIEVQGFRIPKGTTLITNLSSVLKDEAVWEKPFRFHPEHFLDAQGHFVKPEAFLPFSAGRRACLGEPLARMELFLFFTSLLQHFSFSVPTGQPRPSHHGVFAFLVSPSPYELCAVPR
parameter: IC50 (µM)

> print(dat)
                                   molecule       studysystem  uom  quantitativereadout
1  COc1cc2c(cc1-n1cnc3ccc(-c4ccnc5[nH]ccc45)cc31)CNC2  UniProtKB P10635   µM                   24

====

protocol: Clearance in mouse liver microsomes
Format: ADME, microsome
conditionContext: read-out: CLH
parameter: microsomal CLint

> print(dat)
                                   molecule         parameter          result
1  COc1cc2c(cc1-n1cnc3ccc(-c4ccnc5[nH]ccc45)cc31)CNC2  microsomal CLint  21.5 µL/min/mg
